Below is a list of entries, each paired with its recorded IC50 value.
Target: TARP γ8 dependent AMPA receptor (GRIA1o-CACNG8 fusion construct) (Homo sapiens (Human), UniProt P42261+Q8WXS5)
Sequence (P42261 other isoform, or with tags, fused parts or gaps): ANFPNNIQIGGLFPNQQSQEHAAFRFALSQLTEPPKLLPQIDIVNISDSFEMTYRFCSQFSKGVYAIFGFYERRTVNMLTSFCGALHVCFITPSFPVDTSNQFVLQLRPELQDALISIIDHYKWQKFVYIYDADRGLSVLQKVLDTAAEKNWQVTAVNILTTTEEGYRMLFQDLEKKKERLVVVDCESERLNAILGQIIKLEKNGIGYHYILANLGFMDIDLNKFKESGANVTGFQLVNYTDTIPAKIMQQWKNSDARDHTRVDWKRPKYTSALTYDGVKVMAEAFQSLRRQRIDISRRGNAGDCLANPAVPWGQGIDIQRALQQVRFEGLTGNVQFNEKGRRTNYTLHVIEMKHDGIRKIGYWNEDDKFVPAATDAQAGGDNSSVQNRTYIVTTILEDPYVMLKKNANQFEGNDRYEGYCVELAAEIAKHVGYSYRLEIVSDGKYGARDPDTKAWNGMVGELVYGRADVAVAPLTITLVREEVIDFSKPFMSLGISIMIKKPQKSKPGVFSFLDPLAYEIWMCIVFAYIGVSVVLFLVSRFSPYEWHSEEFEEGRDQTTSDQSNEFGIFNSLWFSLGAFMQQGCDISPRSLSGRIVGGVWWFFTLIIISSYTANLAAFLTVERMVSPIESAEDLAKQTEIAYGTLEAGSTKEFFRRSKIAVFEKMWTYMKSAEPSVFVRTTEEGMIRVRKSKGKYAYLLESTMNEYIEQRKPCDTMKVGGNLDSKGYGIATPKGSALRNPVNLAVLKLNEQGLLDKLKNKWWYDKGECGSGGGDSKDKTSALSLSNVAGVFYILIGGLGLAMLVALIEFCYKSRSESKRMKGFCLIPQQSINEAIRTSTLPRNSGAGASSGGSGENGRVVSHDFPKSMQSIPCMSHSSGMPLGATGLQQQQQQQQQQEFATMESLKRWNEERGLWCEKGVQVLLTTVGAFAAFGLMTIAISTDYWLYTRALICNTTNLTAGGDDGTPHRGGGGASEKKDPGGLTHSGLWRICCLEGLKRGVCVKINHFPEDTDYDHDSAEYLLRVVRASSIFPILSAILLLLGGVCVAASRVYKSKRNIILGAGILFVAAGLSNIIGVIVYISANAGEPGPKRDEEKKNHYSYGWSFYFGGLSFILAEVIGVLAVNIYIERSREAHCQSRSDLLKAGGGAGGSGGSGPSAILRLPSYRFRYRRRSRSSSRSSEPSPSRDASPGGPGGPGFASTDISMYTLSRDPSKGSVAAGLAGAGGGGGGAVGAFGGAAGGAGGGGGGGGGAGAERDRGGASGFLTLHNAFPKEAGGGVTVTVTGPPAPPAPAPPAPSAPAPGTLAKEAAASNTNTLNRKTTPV
Experiment: Calcium flux assay (FLIPR), inhibition of glutamate response of GluA1o-γ8 channel
Details: HEK293 cells stably expressing GRIA1o-CACNG8 fusion; calcium flux after 15 μM glutamate; negative log of the IC50 in molar

CHEMICAL STRUCTURE	IC50, nM
CCCc1nc2c(Cl)cc(C(F)(F)F)c(-c3cc(Cl)c4c(c3)CC(=O)N4)n2n1	0.501
CCc1nc2c(CC)cc(C(F)(F)F)c(-c3cc(Cl)c4[nH]ncc4c3)n2n1	0.794
CCc1cc(C(F)F)c(-c2cc(Cl)c3[nH]ncc3c2)n2nc(C(F)(F)F)nc12	0.501
CCc1cc(C(F)(F)F)c(-c2cc(C)c3c(c2)CC(=O)N3)n2nc(C3CC3)nc12	0.316

====

Below is a list of entries, each paired with its recorded pIC50 value.
Target: TARP γ8 dependent AMPA receptor (GRIA1o-CACNG8 fusion construct) (Homo sapiens (Human), UniProt P42261+Q8WXS5)
Test: Calcium flux assay (FLIPR), inhibition of glutamate response of GluA1o-γ8 channel
Conditions: HEK293 cells stably expressing GRIA1o-CACNG8 fusion; calcium flux after 15 μM glutamate; negative log of the IC50 in molar
pIC50: −log10 of the molar value.

COMPOUND	pIC50
CC(F)(F)c1nc2ccc(C(F)(F)F)c(-c3cc(Cl)c4[nH]ncc4c3)n2n1 [Example 42]	10.00
CCc1nc2c(F)cc(C(F)(F)F)c(-c3cc(Cl)c4c(c3)CC(=O)N4)n2n1 [Example 32]	8.70
COc1cc(-c2c(C(F)F)ccc3nc(C(F)(F)F)nn23)cc2c1NC(=O)C2 [Example 20]	8.60
Cc1cc(-c2c(C(F)(F)F)cc(C)c3nc(C(F)(F)F)nn23)cc2c1NC(=O)C2 [Example 105]	9.50
FC(F)(F)c1cc2ccc(C(F)(F)F)c(-c3cc(Cl)c4[nH]ncc4c3)n2n1 [Example 63]	10.80
Cc1cc(-c2c(C(F)(F)F)ccc3nc(C(F)(F)F)nn23)cc2cn[nH]c12 [Example 2]	9.70
Cc1cc(C(F)F)c(-c2cc(Cl)c3c(c2)CC(=O)N3)n2nc(C(F)(F)F)cc12 [Example 124]	9.60
Cc1cc(-c2c(C(F)(F)F)ccc3cc(C(F)(F)F)nn23)cc2c1NC(=O)C2 [Example 65]	10.80
FC(F)c1nc2ccc(C(F)(F)F)c(-c3cc(Cl)c4[nH]ncc4c3)n2n1 [Example 7]	10.20
Fc1ccc(-c2ccc3nc(C(F)(F)F)nn3c2-c2ccc3[nH]ncc3c2)cc1 [Example 56]	8.90
CC(C)c1cc2ccc(C(F)(F)F)c(-c3cc(Cl)c4c(c3)CC(=O)N4)n2n1 [Example 72]	10.90
CCc1nc2c(Cl)cc(C(F)(F)F)c(-c3cc(C)c4[nH]ncc4c3)n2n1 [Example 30]	8.40
COc1ccc2nc(C(F)F)nn2c1-c1cc(C(F)(F)F)c2[nH]ncc2c1 [Example 15]	8.70
CCc1cc(C(F)(F)F)c(-c2cc(C)c3[nH]ncc3c2)n2nc(C3CC3)nc12 [Example 81]	9.30
Cc1cc(C(F)F)c(-c2cc(Cl)c3c(c2)CC(=O)N3)n2nc(C3CC3)nc12 [Example 113]	9.50
CCc1cc(C(F)(F)F)c(-c2cc(C)c3[nH]ncc3c2)n2nc(C(F)F)nc12 [Example 88]	8.80
Cc1cc(-c2c(C(F)F)ccc3cc(C(F)(F)F)nn23)cc2c1NC(=O)C2 [Example 119]	10.30

====

Below is a list of entries, each paired with its recorded log10(IC50) value.
Target: TARP γ8 dependent AMPA receptor (GRIA1o-CACNG8 fusion construct) (Homo sapiens (Human), UniProt P42261+Q8WXS5)
Assay: Calcium flux assay (FLIPR), inhibition of glutamate response of GluA1o-γ8 channel
Details: HEK293 cells stably expressing GRIA1o-CACNG8 fusion; calcium flux after 15 μM glutamate; negative log of the IC50 in molar
Description: This assay was used to test compounds for their ability to inhibit TARP γ8 dependent AMPA receptor activity. The AMPA receptor is a non-selective cation channel activated by glutamate. […] Cell expressing the GRIA1o-CACNG8 fusion construct were grown in a monolayer in 96- or 384-well microtiter plates. […] Calcium flux following the addition of 15 μM glutamate was monitored using a Molecular Devices FLIPR Tetra. […]
RESULT TYPE: log10(IC50) (log10 of the value in nM)

CHEMICAL STRUCTURE	log10(IC50)
Cc1cc(-c2c(C(F)F)cc(C)c3cc(C(F)(F)F)nn23)cc2c1NC(=O)C2	-1.30
Cc1cc(-c2c(C(F)(F)F)cc(C)c3nc(C4CC4)nn23)cc2c1NC(=O)C2	-0.60
Cc1cc(-c2c(C(F)F)cc(C)c3cc(C(F)(F)F)nn23)cc2cn[nH]c12	-0.90
FC(F)(F)c1ccc2nc(C3CC3)nn2c1-c1cc(Cl)c2[nH]ncc2c1	-0.90
CCc1nc2c(F)cc(C(F)(F)F)c(-c3cc(Cl)c4[nH]ncc4c3)n2n1	0.10
Cc1cc(-c2c(C(F)(F)F)ccc3nc(C(C)C)nn23)cc2cn[nH]c12	-0.50
CCc1nc2ccc(C(F)(F)F)c(-c3cc(Cl)c4c(c3)CC(=O)N4)n2n1	0.10
CCc1nc2ccc(C(F)(F)F)c(-c3cc(C)c4c(c3)CC(=O)N4)n2n1	0.60
Cc1cc(-c2c(C(F)(F)F)ccc3cc(C4CC4)nn23)cc2c1NC(=O)C2	-1.30
Cc1cc(C(F)(F)F)c(-c2cc(Cl)c3c(c2)CC(=O)N3)n2nc(C(F)(F)F)nc12	-0.80
Cc1cc(C(F)(F)F)c(-c2cc(Cl)c3[nH]ncc3c2)n2nc(C(F)(F)F)nc12	-0.70
Cc1cc(-c2c(C(F)(F)F)ccc3cc(C(C)C)nn23)cc2c1NC(=O)C2	-1.80
CCCc1nc2c(C)cc(C(F)(F)F)c(-c3cc(Cl)c4[nH]ncc4c3)n2n1	-0.70
O=C1Cc2cc(-c3c(C(F)(F)F)ccc4nc(C(F)F)nn34)cc(Cl)c2N1	-0.40
CCc1cc(C(F)(F)F)c(-c2cc(Cl)c3[nH]ncc3c2)n2nc(C3CC3)nc12	-0.80
Cc1nc2c(C)cc(C(F)(F)F)c(-c3cc(Cl)c4[nH]ncc4c3)n2n1	0.40
O=C1Cc2cc(-c3c(C(F)(F)F)ccc4nc(C5CC5)nn34)cc(Cl)c2N1	-0.40

====

Molecular target: TARP γ8 dependent AMPA receptor (GRIA1o-CACNG8 fusion construct) (Homo sapiens (Human), UniProt P42261+Q8WXS5)
Experiment: Calcium flux assay (FLIPR), inhibition of glutamate response of GluA1o-γ8 channel
Conditions: HEK293 cells stably expressing GRIA1o-CACNG8 fusion; calcium flux after 15 μM glutamate; negative log of the IC50 in molar
Below is a list of entries, each paired with its recorded IC50 value.

CHEMICAL STRUCTURE	IC50
Cc1cc(-c2c(C(F)(F)F)cc(C)c3nc(C(F)(F)F)nn23)cc2cn[nH]c12	0.501 nM
Cc1cc(-c2c(-c3ccncc3)ccc3nc(C(F)(F)F)nn23)cc2cn[nH]c12	6.31 nM
Cc1nc2ccc(C(F)(F)F)c(-c3cc(Cl)c4c(c3)CC(=O)N4)n2n1	10 nM
CCCc1nc2c(C)cc(C(F)(F)F)c(-c3cc(C)c4c(c3)CC(=O)N4)n2n1	0.316 nM
Cc1cc(-c2c(C(F)(F)F)ccc3nc(C4CC4)nn23)cc2c1NC(=O)C2	0.631 nM
CCc1nc2ccc(C(F)F)c(-c3cc(Cl)c4c(c3)CC(=O)N4)n2n1	3.98 nM
COc1cc(-c2c(C(F)(F)F)cc(C)c3nc(C(F)(F)F)nn23)cc2c1NC(=O)C2	1.26 nM
CCCc1nc2c(Cl)cc(C(F)(F)F)c(-c3cc(C)c4c(c3)CC(=O)N4)n2n1	0.794 nM

====

Biological target: TARP γ8 dependent AMPA receptor (GRIA1o-CACNG8 fusion construct) (Homo sapiens (Human), UniProt P42261+Q8WXS5)
Assay: Calcium flux assay (FLIPR), inhibition of glutamate response of GluA1o-γ8 channel
Conditions: HEK293 cells stably expressing GRIA1o-CACNG8 fusion; calcium flux after 15 μM glutamate; negative log of the IC50 in molar
Param label: returns 1 when IC50 < 2 nM, returns -1 otherwise, including exact equality.

CHEMICAL STRUCTURE	CATEGORY LABEL
FC(F)c1ccc2cc(C(F)(F)F)nn2c1-c1cc(Cl)c2[nH]ncc2c1	1
COc1ccc2nc(C(F)F)nn2c1-c1cc(Cl)c2[nH]ncc2c1	-1
Cc1cc(-c2c(C(F)F)ccc3cc(C(F)(F)F)nn23)cc2cn[nH]c12	1
O=C1Cc2cc(-c3c(C(F)F)ccc4nc(C(F)(F)F)nn34)cc(Cl)c2N1	1
COc1nc2ccc(C(F)(F)F)c(-c3cc(Cl)c4[nH]ncc4c3)n2n1	-1
CCOc1nc2c(C)cc(C(F)(F)F)c(-c3cc(Cl)c4[nH]ncc4c3)n2n1	-1
O=C1Cc2cc(-c3c(C(F)(F)F)ccc4nc(C(F)(F)F)nn34)cc(Cl)c2N1	1

The measured values listed here are drawn from patent US10087185B2.
